- System: MiaPaca-2 cells
- PROTOCOL_DETAILS: MiaPaca-2 cell proliferation assay
- Format: cell-based
- SETTINGS: Homo sapiens, MIA PaCa-2; 67-72 h incubation, resazurin; read-out: MiaPaca-2 (inhibition of cell proliferation, IC50)
pIC50: −log10 of the molar value.
MEASURED_PARAMETER: pIC50

The cases that follow already have their pIC50 on record.
{"MOLECULE": "Cc1ccc(NC(=O)c2cc(C3CC3)cnn2)cc1-c1ccnc(N2C[C@@H]3C[C@H]2CO3)c1", "pIC50": "> 7.00"}
{"MOLECULE": "Cc1ccc(NC(=O)c2cc(Cl)cnn2)cc1-c1cc(N[C@H](C)CO)nc(N2CCOCC2)c1", "pIC50": "> 7.00"}
{"MOLECULE": "Cc1ccc(NC(=O)c2cnc(C(C)C)nc2)cc1-c1cc(N[C@H](C)CO)nc(N2CCOCC2)c1", "pIC50": "5.00 to 6.00"}
{"MOLECULE": "Cc1ccc(NC(=O)c2cc(C(F)(F)F)cnn2)cc1-c1nc(N[C@H](C)CO)cc(N2C[C@H]3C[C@@H]2CO3)n1", "pIC50": "6.30 to 7.00"}
{"MOLECULE": "Cc1ccc(NC(=O)c2cc(C(C)C)cnn2)cc1-c1ccnc(N2CCOCC2)n1", "pIC50": "5.00 to 6.00"}
{"MOLECULE": "Cc1ccc(NC(=O)c2cc(C(F)(F)F)cnn2)cc1-c1nc(N[C@H](C)CO)cc(N2CCOCC2)n1", "pIC50": "6.30 to 7.00"}
{"MOLECULE": "Cc1ccc(NC(=O)c2cc(C(F)(F)F)cnn2)cc1-c1cc(OCCO)nc(N2CCOCC2)n1", "pIC50": "6.30 to 7.00"}
{"MOLECULE": "Cc1ccc(NC(=O)c2cc(C3CC3)cnn2)cc1-c1cc(N[C@H](C)CO)nc(N2CCOCC2)c1", "pIC50": "> 7.00"}
{"MOLECULE": "Cc1ccc(NC(=O)c2cc(C(F)(F)F)cnn2)cc1-c1cncc(N2CCOCC2)c1", "pIC50": "> 7.00"}
{"MOLECULE": "Cc1ccc(NC(=O)c2cc(C(C)C)cnn2)cc1-c1cc(N[C@H](C)CO)nc(N2CCOCC2)c1", "pIC50": "6.30 to 7.00"}

IN: Would you kindly share the measured pIC50 for Cc1ccc(NC(=O)c2cc(C(F)(F)F)cnn2)cc1-c1ccnc(N2CCOC(C(F)F)C2)c1 (centres unmarked) ?
OUT: 6.30 to 7.00

IN: Then this molecule: Cc1ccc(NC(=O)c2cnc(N)nc2)cc1-c1cc(N[C@H](C)CO)nc(N2CCOCC2)c1
OUT: 5.00 to 6.00

IN: And the next one, Cc1ccc(NC(=O)c2cncc(C(F)(F)F)c2)cc1-c1cc(OCCO)nc(N2CCOCC2)c1 ?
OUT: 6.00 to 6.30

###

- System: tubulin polymerization in HCT-116 cells
- PROTOCOL_DETAILS: Cellular tubulin polymerization assay (HCT-116 cells)
- Type: cell-based
- SETTINGS: ratio of pellet to supernatant vs DMSO control, HCT-116, FIG. 2; read-out: IC50 of inhibition of tubulin polymerization, cellular tubulin assay
MEASURED_PARAMETER: pIC50
Just the number, please; pIC50 means minus log10 of the concentration in mol/L.

IN: Any idea what its pIC50 is? The molecule is CC(C)(C)c1[nH]cnc1/C=c1\[nH]c(=O)/c(=C/c2ccccc2)[nH]c1=O [plinabulin, reference compound]
OUT: 8.30

###

- Tested on: MiaPaca-2 cells
- PROTOCOL_DETAILS: MiaPaca-2 cell proliferation assay
- Format: cell-based
- SETTINGS: Homo sapiens, MIA PaCa-2; 67-72 h incubation, resazurin; read-out: MiaPaca-2 (inhibition of cell proliferation, IC50)
pIC50: −log10 of the molar value.
Measured pIC50 accompanies every entry in the list below.

Before answering, review these 3 worked examples.
{"MOLECULE": "Cc1ccc(NC(=O)c2cc(C(C)C)cnn2)cc1-c1cc(N2CCOCC2)ncn1 [Example 72]", "EXPERIMENTAL_TARGET": "MiaPaca-2 cells", "pIC50": "5.00 to 6.00"}
{"MOLECULE": "Cc1ccc(NC(=O)c2cc(Cl)cnn2)cc1-c1ccnc(N2CCOCC2)n1 [Example 71]", "EXPERIMENTAL_TARGET": "MiaPaca-2 cells", "pIC50": "6.30 to 7.00"}
{"MOLECULE": "CNc1cc(-c2cc(NC(=O)c3cc(C4CC4)cnn3)ccc2C)cc(N2CCOCC2)n1 [Example 60]", "EXPERIMENTAL_TARGET": "MiaPaca-2 cells", "pIC50": "> 7.00"}

Please examine the following record next.
IN: What does the record list as pIC50 for Cc1ccc(NC(=O)c2cc(C(F)(F)F)cnn2)cc1-c1cc(N2CCOCC2)cnn1 [Example 22] ?
OUT: 5.00 to 6.00

###

- EXPERIMENTAL_TARGET: C-Raf kinase (SEQ ID NO: 2) (Homo sapiens, UniProt P04049, Y340D/Y341D)
- Construct: C-Raf residues 306-end; Y340D, Y341D with N-; GST (N); purchased Sigma
- Sequence (P04049 307-648 Y340D/Y341D): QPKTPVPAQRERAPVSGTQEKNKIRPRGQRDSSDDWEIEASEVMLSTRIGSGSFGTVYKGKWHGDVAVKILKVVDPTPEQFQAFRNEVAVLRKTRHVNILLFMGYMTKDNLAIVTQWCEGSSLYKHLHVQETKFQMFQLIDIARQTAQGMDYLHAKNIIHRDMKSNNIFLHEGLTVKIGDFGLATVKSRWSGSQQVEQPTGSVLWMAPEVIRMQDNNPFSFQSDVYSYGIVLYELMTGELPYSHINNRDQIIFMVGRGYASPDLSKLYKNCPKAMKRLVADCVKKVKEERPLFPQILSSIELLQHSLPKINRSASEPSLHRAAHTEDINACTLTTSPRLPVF
- PROTOCOL_DETAILS: Biochemical assay for C-Raf (coupled pyruvate kinase/lactate dehydrogenase)
- SETTINGS: Table 3; read-out: CRAF
MEASURED_PARAMETER: IC50

Solved cases (2 shown):
{"MOLECULE": "Cc1ccc(NC(=O)c2cc(C(F)(F)F)cnn2)cc1-c1ccnc(N2CC3CCC(C2)O3)c1 [Example 83]", "RESULT": "< 100 nM"}
{"MOLECULE": "Cc1ccc(NC(=O)c2cc(C3CC3)cnn2)cc1-c1cc(OCCO)nc(N2CCOCC2)c1 [Example 37]", "RESULT": "< 100 nM"}

Next up:
IN: // returns reported IC50 for input Cc1ccc(NC(=O)c2cc(C(F)(F)F)cnn2)cc1-c1ccnc(N2CCOCC2)n1 [Example 29]
OUT: 1000 to 10000 nM

###

- EXPERIMENTAL_TARGET: C-Raf kinase (SEQ ID NO: 2) (Homo sapiens, UniProt P04049, Y340D/Y341D)
- Construct: C-Raf residues 306-end; Y340D, Y341D with N-; GST (N); purchased Sigma
- PROTOCOL_DETAILS: Biochemical assay for C-Raf (coupled pyruvate kinase/lactate dehydrogenase)
- SETTINGS: 1 mM ATP; read-out: CRAF (inhibition of biochemical activity, IC50)
pIC50: −log10 of the molar value.
MEASURED_PARAMETER: pIC50

Some solved entries appear below for comparison.
{"SMILES_INPUT": "Cc1ccc(NC(=O)c2cc(C(F)(F)F)cnn2)cc1-c1cccc(N2CCOCC2)c1", "RESULT": "> 7.00"}
{"SMILES_INPUT": "Cc1ccc(NC(=O)c2cc(Cl)cnn2)cc1-c1cccc(N2CCOCC2)c1", "RESULT": "5.00 to 6.00"}
{"SMILES_INPUT": "Cc1ccc(NC(=O)c2cc(C(F)(F)F)cnn2)cc1-c1cc(N2CCOCC2)ncn1", "RESULT": "6.00 to 6.30"}
{"SMILES_INPUT": "Cc1ccc(NC(=O)c2cncc(Cl)n2)cc1-c1cc(N[C@H](C)CO)nc(N2CCOCC2)c1", "RESULT": "6.30 to 7.00"}

IN: Can you look up pIC50 on C-Raf kinase (SEQ ID NO: 2) (Homo sapiens, UniProt P04049, Y340D/Y341D) for Cc1ccc(NC(=O)c2cc(C3CC3)cnn2)cc1-c1cc(N2CCOCC2)nc(N[C@H](C)CO)n1 ?
OUT: > 7.00

IN: One more compound: Cc1ccc(NC(=O)c2cc(C(F)(F)F)cnn2)cc1-c1cnnc(N2CCOCC2)c1
OUT: 6.00 to 6.30

IN: One more compound: Cc1ccc(NC(=O)c2cncc(C3CC3)n2)cc1-c1cc(N[C@H](C)CO)nc(N2CCOCC2)c1
OUT: > 7.00

IN: Thanks! And Cc1ccc(NC(=O)c2cc(C3CC3)cnn2)cc1-c1cc(OCCO)nc(N2CCOCC2)c1 ?
OUT: > 7.00

###

// values below are reported IC50
- EXPERIMENTAL_TARGET: C-Raf kinase (SEQ ID NO: 2) (Homo sapiens, UniProt P04049, Y340D/Y341D)
- Construct: C-Raf residues 306-end; Y340D, Y341D with N-; GST (N); purchased Sigma
- PROTOCOL_DETAILS: Biochemical assay for C-Raf (coupled pyruvate kinase/lactate dehydrogenase)
- SETTINGS: 1 mM ATP; read-out: CRAF (inhibition of biochemical activity, IC50)

As a guide, the following entries are already answered.
{"COMPOUND": "CNc1cc(-c2cc(NC(=O)c3cc(C(F)(F)F)cnn3)ccc2C)cc(N2C[C@H]3C[C@@H]2CO3)n1 [Example 92]", "IC50": "100 to 500 nM"}
{"COMPOUND": "Cc1ccc(NC(=O)c2cc(C(F)(F)F)cnn2)cc1-c1ccnc(N2C[C@@H](C)O[C@@H](C)C2)c1 [Example 84]", "IC50": "1000 to 10000 nM"}
{"COMPOUND": "Cc1ccc(NC(=O)c2cc(C3CC3)cnn2)cc1-c1ccnc(N2C[C@H]3C[C@@H]2CO3)c1 [Example 88]", "IC50": "< 100 nM"}
{"COMPOUND": "Cc1cc(-c2cc(NC(=O)c3cc(C4CCC4)cnn3)ccc2C)cc(N2CCOCC2)n1 [Example 42]", "IC50": "< 100 nM"}
{"COMPOUND": "Cc1ccc(NC(=O)c2cc(C3CCC3)cnn2)cc1-c1cc(OCCO)nc(N2CCOCC2)c1 [Example 50]", "IC50": "< 100 nM"}
{"COMPOUND": "Cc1ccc(NC(=O)c2cc(Cl)cnn2)cc1-c1cc(OCCO)nc(N2CCOCC2)c1 [Example 32]", "IC50": "100 to 500 nM"}

Now consider a different compound.
IN: Entry Cc1ccc(NC(=O)c2cc(C(F)(F)F)cnn2)cc1-c1cc(N2CCOCC2)nc(N[C@H](C)CO)n1 [Example 33] : reported IC50 = ?
OUT: < 100 nM
